src = ChEMBL document CHEMBL1201862

Test system: NCI-H226
Test: NCI tumour cell line growth inhibition, 48 h
The source made the active and inactive calls. Cut-off read from the data, not from the text of the source: active = GI50 up to about 1.1 µM and inactive = higher.
Entry note: the call must match one of YES for active, NO for inactive

Would you please look over these solved cases?
>  <COMPOUND>
COc1cc(C2c3cc4c(cc3[C@@H](Nc3cccc(CO)c3)C3COC(=O)[C@H]23)OCO4)cc(OC)c1O (some centres undefined)

>  <ASSIGNED CATEGORY>
YES

$$$$
>  <COMPOUND>
c1ccc2sc(C3(N4CCCCC4)CCCC3)cc2c1

>  <ASSIGNED CATEGORY>
NO

$$$$
>  <COMPOUND>
COc1ccc(/C(C)=N/NC(N)=S)c(OC)c1

>  <ASSIGNED CATEGORY>
NO

$$$$
>  <COMPOUND>
COc1cc(Nc2nc3ccccc3nc2C(=O)O)cc(OC)c1OC

>  <ASSIGNED CATEGORY>
NO

$$$$
>  <COMPOUND>
Nn1c(CCCCCCCCc2nnc(-c3c(O)ccc4ccccc34)n2N)nnc1-c1c(O)ccc2ccccc12

>  <ASSIGNED CATEGORY>
NO

$$$$

Hi, do you know how `C=CCCON(C(=O)OC(C)(C)C)c1ccccc1` came out in this test? NO

What is the recorded call for this compound in the test? `O=S(=O)(N1CCCCN(S(=O)(=O)C(F)(F)F)CCCN(S(=O)(=O)C(F)(F)F)CCCCN(S(=O)(=O)C(F)(F)F)CCCN(S(=O)(=O)C(F)(F)F)CCCCN(S(=O)(=O)C(F)(F)F)CCCN(S(=O)(=O)C(F)(F)F)CCCCN(S(=O)(=O)C(F)(F)F)CCC1)C(F)(F)F` NO

What did this assay record as the result for O=C1NC(=O)C2C(=O)NC(=O)C1C2c1c(Cl)cccc1Cl (centres undefined) ? NO
